- Test system: PC-3
- assay name: NCI tumour cell line growth inhibition, 48 h
Activity calls are given as the source filed them. Cut-off read from the data, not from the text of the source: active = GI50 up to about 1.1 µM and inactive = higher.
reported property: GI50

INSERT INTO measurements (molecule, result) VALUES
  ('CC1=CC[C@H](C(C)C)C(C(O)[C@@H](C)O[Si](c2ccccc2)(c2ccccc2)C(C)(C)C)C1=O (stereo not given in full)', '14 µM (inactive)'),
  ('CC(C)=CCC/C(C)=C/CO', '> 100 µM (inactive)'),
  ('CC(C)(C)c1cc(OCc2nnc3sc(Cc4ccccc4)nn23)c(Cl)cc1OCc1nnc2sc(Cc3ccccc3)nn12', '30.1 µM (inactive)'),
  ('O=c1cc(-c2ccccc2)[nH]c2ccc(N3CCOCC3)cc12', '0.0346 µM (active)'),
  ('COc1cc(NC=C2C(=O)OC(C)(C)OC2=O)c(OC)c(C)c1OC', '> 100 µM (inactive)');

###

- Test system: CCRF-CEM
- assay name: NCI tumour cell line growth inhibition, 48 h
The source made the active and inactive calls. Rule as the data show it: active = GI50 up to about 1.1 µM and inactive = higher.
Classes used: active, inactive

INSERT INTO results (molecule, target_system, label_class) VALUES
  ('Cc1cc(C(=O)NCCN(C)C)c2nc3ccccc3cc2c1', 'CCRF-CEM', 'inactive'),
  ('COc1ccc(Br)c(N/N=C2\CCCNC2=O)c1', 'CCRF-CEM', 'inactive'),
  ('CNC(=O)/C(C#N)=C(\N)N1CCCC1', 'CCRF-CEM', 'inactive'),
  ('CN(C)c1ccc2nc3c(C(=O)O)cc(O)c(O)c3[o+]c2c1', 'CCRF-CEM', 'inactive'),
  ('Clc1cccc(Cl)c1C1SCc2nc3cc4ccccc4cc3n21 (stereo unspecified)', 'CCRF-CEM', 'inactive'),
  ('CCCCN(CCCC)C(=O)C(=O)CC(=O)c1ccc(Br)cc1', 'CCRF-CEM', 'inactive'),
  ('O=c1/c(=C/c2ccccc2[N+](=O)[O-])sc2nnc(-c3ccco3)n12', 'CCRF-CEM', 'inactive'),
  ('CC(=O)Nc1ccc(C(=O)NN2C(=O)C(Cl)/C2=C/c2ccco2)cc1 (stereo unspecified)', 'CCRF-CEM', 'inactive'),
  ('C[n+]1c(-c2ccc(/C=N/NC(=N)N/N=C/c3ccc(-c4cn5cc(Cl)ccc5[n+]4C)cc3)cc2)cn2cc(Cl)ccc21', 'CCRF-CEM', 'inactive'),
  ('COc1cccc(OCC(=N/NC(=O)c2ccncc2)/N=C/c2ccncc2)c1', 'CCRF-CEM', 'inactive'),
  ('COc1cc2c(c(OC)c1OC)-c1ccc(SC)c(=O)cc1[C@@H](NC(=O)c1ccc(Cl)cc1)CC2', 'CCRF-CEM', 'active');

###

- System: MDA-MB-231
- assay name: NCI tumour cell line growth inhibition, 48 h
Calls of active or inactive are those of the source. No stated cut-off is given here; in the data, active = GI50 up to about 1.1 µM and inactive = higher.
Possible outcomes: active, inactive

INSERT INTO measurements (compound, target_system, label_class) VALUES
  ('O=C1/C(=C/c2ccccc2)Oc2cc(O)ccc21', 'MDA-MB-231', 'inactive'),
  ('CC(C)C1OC(/C=C/c2ccccc2)OCC1(C)C (stereo not given)', 'MDA-MB-231', 'inactive'),
  ('Cc1c(/C=N/NC(=S)Nc2ccc([N+](=O)[O-])cc2)c(=O)n(-c2ccccc2)n1C', 'MDA-MB-231', 'inactive'),
  ('CCC(=O)O[C@H]1CC[C@H]2[C@@H]3CCC4=C/C(=N/OC(=O)c5cccc6cc7ccccc7nc56)CC[C@]4(C)[C@H]3CC[C@]12C', 'MDA-MB-231', 'inactive'),
  ('CC(=O)NNc1nc(C)c(C(/C=C/c2ccc([N+](=O)[O-])cc2)=N/N)s1', 'MDA-MB-231', 'inactive'),
  ('CCC(C)C(=O)OCC(=O)c1ccc(-c2ccccc2)cc1 (stereo not given)', 'MDA-MB-231', 'inactive'),
  ('CC1=CC(C)C(C)N(CC2=NCCN2)c2ccccc21 (stereo not given)', 'MDA-MB-231', 'inactive'),
  ('O=[N+]([O-])c1ccc2nc(Cl)n[n+]([O-])c2c1', 'MDA-MB-231', 'inactive'),
  ('Cc1cc(C(O)CNC(C)CCn2cnc3c2c(=O)n(C)c(=O)n3C)ccc1O (stereo not given)', 'MDA-MB-231', 'inactive'),
  ('[O-][S+]1SC(=S)C2C=CC=CC21 (stereo not given)', 'MDA-MB-231', 'inactive'),
  ('CCC(CC)C(=O)OC[n+]1cccc(-c2c(COC(=O)NC(C)C)c(COC(=O)NC(C)C)c3n2CCC3)c1', 'MDA-MB-231', 'inactive'),
  ('Cc1ccc(S(=O)(=O)Oc2nc3nc4ccccc4nc3nc2OS(=O)(=O)c2ccc(C)cc2)cc1', 'MDA-MB-231', 'inactive'),
  ('CC(C)(Br)C(Br)CC/C(=C/CBr)CBr.CC(C)(Br)C(Br)CC/C(=C\CBr)CBr (stereo not given)', 'MDA-MB-231', 'inactive'),
  ('CCCCC/N=C/c1c(O)c(O)c(C(C)C)c2cc(C)c(-c3c(C)cc4c(C(C)C)c(O)c(O)c(/C=N/CCCCC)c4c3O)c(O)c12', 'MDA-MB-231', 'inactive'),
  ('CCN(CC)CCNc1ccc2nnn3c4ccc(O)cc4c(=O)c1c23', 'MDA-MB-231', 'active'),
  ('CNC(=S)N1CCN(C(C)=O)C1=S', 'MDA-MB-231', 'inactive'),
  ('COC(=O)[C@@H]1CN(C(=O)CCc2ccccc2)C(=O)N1', 'MDA-MB-231', 'inactive'),
  ('O=C1/C(=C\c2ccc([N+](=O)[O-])o2)SC2NC(COc3ccc(Cl)cc3)=NN12 (stereo not given)', 'MDA-MB-231', 'inactive'),
  ('O=C(c1c(F)c(F)c(F)c(F)c1F)c1c(F)c(F)c(F)c(F)c1F', 'MDA-MB-231', 'inactive'),
  ('O=c1cc(-c2ccccc2)[nH]c2ccc(N3CCOCC3)cc12', 'MDA-MB-231', 'active');

Provenance of the data: ChEMBL document CHEMBL1201862
